# tested.system: 17β-HSD3 (Homo sapiens, UniProt P37058)
# Construct: expressed in transfected cells; host or cells: HEK-293 (homogenate)
# assay.notes: Inhibition of 17β-HSD3 in homogenated HEK-293 cells
# Type: biochemical
# condition.parameters: read-out: Homo (%) (0.01 μM), Table 4; 0.01 μM
quantity.measured: inhibition at 0.01 µM (%)
Number in %, nothing else.

[ask] For C[C@]12CC[C@@]3(C[C@@H]1CC[C@@H]1[C@@H]2CC[C@]2(C)C(=O)CC[C@@H]12)CN(Cc1ccc(C(F)(F)F)cc1)C(=O)O3 [Compound 17d] , write its inhibition at 0.01 µM.
[reply] 25

[ask] For Cc1cccc(OCCN2C[C@]3(CC[C@@]4(C)[C@@H](CC[C@@H]5[C@@H]4CC[C@]4(C)C(=O)CC[C@@H]54)C3)OC2=O)c1 [Compound 23a] , write its inhibition at 0.01 µM.
[reply] 13

[ask] For C[C@]12CC[C@@]3(C[C@@H]1CC[C@@H]1[C@@H]2CC[C@]2(C)C(=O)CC[C@@H]12)CN(CCN1CCCCC1)C(=O)O3 [Compound 23c] , write its inhibition at 0.01 µM.
[reply] 0

====

Please respond with reported inhibition at 1 µM for every item in the list.
# tested.system: 17β-HSD3 (Homo sapiens, UniProt P37058)
# Construct: expressed in transfected cells; host or cells: HEK-293 (homogenate)
# Sequence (P37058 1-310): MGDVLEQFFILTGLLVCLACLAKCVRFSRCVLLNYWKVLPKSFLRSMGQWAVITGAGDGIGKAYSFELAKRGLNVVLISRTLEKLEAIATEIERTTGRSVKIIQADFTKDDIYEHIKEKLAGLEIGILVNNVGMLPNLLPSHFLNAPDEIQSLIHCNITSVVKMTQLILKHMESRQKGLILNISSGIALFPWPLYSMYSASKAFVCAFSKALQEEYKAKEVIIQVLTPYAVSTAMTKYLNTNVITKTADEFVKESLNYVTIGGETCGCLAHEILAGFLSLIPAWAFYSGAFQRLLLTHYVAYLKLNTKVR
# assay.notes: Inhibition of 17β-HSD3 in intact HEK-293 cells
# Assay type: cell-based
# condition.parameters: HEK293, 1 h, read-out: Intact cells (%) (1 μM), Table 2 (17β-HSD3); 1 μM
Number in %, nothing else.

[ask] For C[C@]12CC[C@](O)(CN3CCN(c4ccccc4)CC3)C[C@@H]1CC[C@@H]1[C@@H]2CC[C@]2(C)C(=O)CC[C@@H]12 , write its inhibition at 1 µM.
[reply] 68

[ask] For C[C@]12CC[C@](O)(CN3CCCCC3)C[C@@H]1CC[C@@H]1[C@@H]2CC[C@]2(C)C(=O)CC[C@@H]12 , write its inhibition at 1 µM.
[reply] 23

[ask] For C[C@]12CC[C@](O)(CN3CCC(Cc4ccccc4)CC3)C[C@@H]1CC[C@@H]1[C@@H]2CC[C@]2(C)C(=O)CC[C@@H]12 , write its inhibition at 1 µM.
[reply] 52

[ask] For C[C@]12CC[C@](O)(CN3CCN(Cc4ccccc4)CC3)C[C@@H]1CC[C@@H]1[C@@H]2CC[C@]2(C)C(=O)CC[C@@H]12 , write its inhibition at 1 µM.
[reply] 80

====

# tested.system: 17β-HSD10 (Homo sapiens, UniProt Q99714)
# Construct: expressed in transfected cells
# Sequence (Q99714 1-261): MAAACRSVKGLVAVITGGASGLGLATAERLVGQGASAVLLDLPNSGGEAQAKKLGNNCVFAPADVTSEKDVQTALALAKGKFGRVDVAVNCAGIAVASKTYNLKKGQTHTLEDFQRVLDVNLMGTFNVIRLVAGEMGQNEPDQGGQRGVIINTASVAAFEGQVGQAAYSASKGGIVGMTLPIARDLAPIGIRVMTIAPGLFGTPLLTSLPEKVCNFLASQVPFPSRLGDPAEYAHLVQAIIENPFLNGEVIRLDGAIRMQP
# assay.notes: Inhibition of 17β-HSD10 in stably transfected HEK-293 whole cells (E2 into E1)
# Format: cell-based
# condition.parameters: [14C]-E2 (1 μM) into [14C]-E1, intact HEK-293 cells, 1 μM
quantity.measured: Inhibition (%) at 1 μM
Number in %, nothing else.

[ask] For CC1CN(C[C@@]2(O)CC[C@@]3(C)[C@@H](CC[C@@H]4[C@@H]3CC[C@]3(C)C(=O)CC[C@@H]43)C2)C(C)CN1Cc1ccc(C(F)(F)F)cc1 (some centres unmarked) [Compound 11c] , write its Inhibition (%) at 1 μM.
[reply] 24

[ask] For CC1CN(S(=O)(=O)c2cccc(C(F)(F)F)c2)C(C)CN1C[C@@]1(O)CC[C@@]2(C)[C@@H](CC[C@@H]3[C@@H]2CC[C@]2(C)C(=O)CC[C@@H]32)C1 (some centres unmarked) [Compound 15a] , write its Inhibition (%) at 1 μM.
[reply] 42

[ask] For CC1CN(C(=O)c2ccc(C(F)(F)F)cc2)C(C)CN1C[C@@]1(O)CC[C@@]2(C)[C@@H](CC[C@@H]3[C@@H]2CC[C@]2(C)C(=O)CC[C@@H]32)C1 (some centres unmarked) [Compound 13d] , write its Inhibition (%) at 1 μM.
[reply] 22

[ask] For CC1CN(CC2(O)CCC3(C)C(CCC4C5CCC(=O)C5(C)CCC43)C2)C(C)CN1Cc1cccnc1 (centres unmarked) [Compound 11g] , write its Inhibition (%) at 1 μM.
[reply] 21

[ask] For C[C@]12CC[C@](O)(CN3CCN(Cc4cccc(Cl)c4)CC3)C[C@@H]1CC[C@@H]1[C@@H]2CC[C@]2(C)C(=O)CC[C@@H]12 [Compound 10e] , write its Inhibition (%) at 1 μM.
[reply] 21

[ask] For CC1CN(C[C@@]2(O)CC[C@@]3(C)[C@@H](CC[C@@H]4[C@@H]3CC[C@]3(C)C(=O)CC[C@@H]43)C2)C(C)CN1Cc1cccc(Cl)c1 (some centres unmarked) [Compound 11e] , write its Inhibition (%) at 1 μM.
[reply] 25

[ask] For CC1CN(C[C@@]2(O)CC[C@@]3(C)[C@@H](CC[C@@H]4[C@@H]3CC[C@]3(C)C(=O)CC[C@@H]43)C2)C(C)CN1Cc1cccc(SC(F)(F)F)c1 (some centres unmarked) [Compound 11d] , write its Inhibition (%) at 1 μM.
[reply] 27

[ask] For CC1CN(S(=O)(=O)c2ccccc2C(F)(F)F)C(C)CN1CC1(O)CCC2(C)C(CCC3C4CCC(=O)C4(C)CCC32)C1 (centres unmarked) [Compound 15b] , write its Inhibition (%) at 1 μM.
[reply] 30

[ask] For CC1CN(C[C@@]2(O)CC[C@@]3(C)[C@@H](CC[C@@H]4[C@@H]3CC[C@]3(C)C(=O)CC[C@@H]43)C2)C(C)CN1Cc1cccc(C(F)(F)F)c1 (some centres unmarked) [Compound 11a] , write its Inhibition (%) at 1 μM.
[reply] 26

[ask] For CC1CN(S(=O)(=O)c2ccccc2C(F)(F)F)C(C)CN1CC1(O)CCC2(C)C(CCC3C4CCC(=O)C4(C)CCC32)C1 (centres unmarked) [Compound 15c] , write its Inhibition (%) at 1 μM.
[reply] 18

[ask] For CC1CN(CC2(O)CCC3(C)C(CCC4C5CCC(=O)C5(C)CCC43)C2)C(C)CN1Cc1ccccc1C(F)(F)F (centres unmarked) [Compound 11b] , write its Inhibition (%) at 1 μM.
[reply] 25

====

# tested.system: 17β-HSD1 (Homo sapiens, UniProt P14061)
# Construct: endogenous in cells; host or cells: T-47D
# Sequence (P14061 whole entry): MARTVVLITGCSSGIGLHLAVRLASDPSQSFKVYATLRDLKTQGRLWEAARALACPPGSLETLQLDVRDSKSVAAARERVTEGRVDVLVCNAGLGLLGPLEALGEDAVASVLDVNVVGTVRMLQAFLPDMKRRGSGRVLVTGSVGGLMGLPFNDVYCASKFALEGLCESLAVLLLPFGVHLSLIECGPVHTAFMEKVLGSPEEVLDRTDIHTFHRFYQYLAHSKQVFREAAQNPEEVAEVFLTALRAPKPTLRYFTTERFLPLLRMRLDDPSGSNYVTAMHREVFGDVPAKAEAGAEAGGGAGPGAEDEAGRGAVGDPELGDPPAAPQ
# assay.notes: Inhibition of 17β-HSD1 in T-47D intact cells (E1 into E2)
# Assay type: cell-based
# condition.parameters: T47D, read-out: Inhibition (1 μM)
Please respond with reported inhibition at 1 µM for every item in the list.
Number in %, nothing else.

[ask] For C[C@]12CC[C@@H]3c4ccc(C(=O)N5CCCC5)cc4CC[C@H]3[C@@H]1C[C@H](Cc1cccc(C(N)=O)c1)[C@@H]2O [Compound 41c] , write its inhibition at 1 µM.
[reply] 13

[ask] For C[C@]12CC[C@@H]3c4ccc(CCBr)cc4CC[C@H]3[C@@H]1C[C@H](Cc1cccc(C(N)=O)c1)[C@@H]2O , write its inhibition at 1 µM.
[reply] 89

[ask] For C[C@]12CC[C@@H]3c4ccc(F)cc4CC[C@H]3[C@@H]1C[C@H](Cc1cccc(C(N)=O)c1)[C@@H]2O , write its inhibition at 1 µM.
[reply] 50

====

# tested.system: 17β-HSD3 (Homo sapiens, UniProt P37058)
# Construct: expressed in transfected cells; host or cells: HEK-293 (homogenate)
# assay.notes: Inhibition of 17β-HSD3 in homogenated HEK-293 cells
# Format: biochemical
# condition.parameters: Table 2 (17β-HSD3); [14C]-Δ4-dione 50 nM into [14C]-T, 0.01 μM; read-out: Homo (%) (0.01 μM)
quantity.measured: inhibition at 0.01 µM (%)
Number in %, nothing else.

[ask] For C[C@]12CC[C@](O)(CN3CCC(Cc4ccccc4)CC3)C[C@@H]1CC[C@@H]1[C@@H]2CC[C@]2(C)C(=O)CC[C@@H]12 , write its inhibition at 0.01 µM.
[reply] 40

[ask] For C[C@]12CC[C@](O)(CN3CCCCC3)C[C@@H]1CC[C@@H]1[C@@H]2CC[C@]2(C)C(=O)CC[C@@H]12 , write its inhibition at 0.01 µM.
[reply] 9

[ask] For C[C@]12CC[C@](O)(CN3CCN(c4ccccc4)CC3)C[C@@H]1CC[C@@H]1[C@@H]2CC[C@]2(C)C(=O)CC[C@@H]12 , write its inhibition at 0.01 µM.
[reply] 13

[ask] For C[C@]12CC[C@](O)(CN3CCN(Cc4ccccc4)CC3)C[C@@H]1CC[C@@H]1[C@@H]2CC[C@]2(C)C(=O)CC[C@@H]12 , write its inhibition at 0.01 µM.
[reply] 35
